- systemName: E. histolytica PanK (EhPanK) recombinant enzyme (Entamoeba histolytica)
- Sequence (B1N2P3 entry or part of it): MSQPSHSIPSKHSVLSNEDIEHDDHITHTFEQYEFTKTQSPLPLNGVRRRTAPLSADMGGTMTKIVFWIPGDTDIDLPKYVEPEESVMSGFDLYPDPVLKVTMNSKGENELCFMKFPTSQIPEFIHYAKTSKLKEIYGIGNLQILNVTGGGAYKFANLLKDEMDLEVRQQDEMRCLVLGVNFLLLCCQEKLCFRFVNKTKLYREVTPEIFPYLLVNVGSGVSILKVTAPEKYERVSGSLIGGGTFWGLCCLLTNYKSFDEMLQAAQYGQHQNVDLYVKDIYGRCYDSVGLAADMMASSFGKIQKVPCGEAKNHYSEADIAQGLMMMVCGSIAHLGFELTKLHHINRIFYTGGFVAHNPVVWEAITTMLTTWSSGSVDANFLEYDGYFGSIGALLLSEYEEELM
- assayInfo: biochemical
- appliedConditions: recombinant EhPanK, 100 μM pantothenate, 100 μM ATP, 37 °C, 2 h; mean ± SEM of three replicates; read-out: IC50 against EhPanK activity
measuredAttribute: IC50 (µM)
Please reply with the bare figure in µM and do not write the unit itself.

Reference set, count: 2
CC(=O)[C@H]1O[C@@H](Oc2ccc(/C=C(\C)C(=O)N[C@@H]3[C@H](O)[C@@H](O)[C@H]4OCO[C@H]4[C@@H]3O)cc2O)[C@@H](O)[C@@H]1O [Hygromycin A]: 194
CC[C@H]1OC(=O)[C@H](C)[C@@H](O[C@H]2C[C@@](C)(OC)[C@@H](O)[C@H](C)O2)[C@H](C)[C@@H](O[C@@H]2O[C@H](C)C[C@H](N(C)C)[C@H]2O)[C@](C)(O)C[C@@H](C)C(=O)[C@H](C)[C@@H](O)[C@]1(C)O [Erythromycin A]: 131

Lookup: Entry under review: NC[C@@H]1O[C@H](O[C@H]2[C@@H](O)[C@H](O[C@@H]3[C@@H](O)[C@H](N)C[C@H](N)[C@H]3O[C@H]3O[C@H](CN)[C@@H](O)[C@H](O)[C@H]3N)O[C@@H]2CO)[C@H](N)[C@@H](O)[C@@H]1O [Neomycin] . Reported IC50?
Found: 147

Lookup: Same question, CC(/C=C/C(O)=C1/C(=O)CNC1=O)=C\C(C)C1OC2(C)OC(C(=O)C3OC32C)C1C (stereo not shown) [Tirandamycin A] this time
Found: 229

Lookup: Same question, CCC1OC(=O)CC(O)C(C)C(O[C@@H]2O[C@H](C)C[C@H](N(C)C)[C@H]2O)C(CC=O)CC(C)C(=O)/C=C/C2(C)OC2C1C (stereo partly shown) [Rosamycin] this time
Found: 166

Lookup: Same question, [H]/N=C(/N)N[C@H]1[C@H](O)[C@@H](O)[C@H](O[C@@H]2O[C@@H](C)[C@](O)(C=O)[C@H]2O[C@@H]2O[C@@H](CO)[C@H](O)[C@@H](O)[C@@H]2NC)[C@@H](N/C(N)=N\[H])[C@@H]1O [Streptomycin] this time
Found: 155

Lookup: Same question, O=C(Cc1cccs1)N[C@@H]1C(=O)N2C(C(=O)[O-])=C(C[n+]3ccccc3)CS[C@H]12 [Cephaloridine] this time
Found: 230

Lookup: Same question, CC(/C=C/C(=O)NO)=C\[C@@H](C)C(=O)c1ccc(N(C)C)cc1 [Trichostatin] this time
Found: 310

Lookup: Same question, CS[C@H]1SC[C@H]2C(=O)N(C)[C@@H](C(C)C)C(=O)OC[C@@H](NC(=O)c3cnc4ccccc4n3)C(=O)N[C@@H](C)C(=O)N(C)[C@@H]1C(=O)N(C)[C@@H](C(C)C)C(=O)OC[C@@H](NC(=O)c1cnc3ccccc3n1)C(=O)N[C@@H](C)C(=O)N2C [Echinomycin] this time
Found: 77.8

Lookup: Same question, COc1cccc2c1C(=O)C1=C(C[C@@H](CC(=O)O)O[C@@H]1C)C2=O [O-methylnanaomycin A] this time
Found: 284

---

- systemName: E. histolytica pantothenate kinase (Entamoeba histolytica)
- Sequence (B1N2P3 entry or part of it): as above
- assayInfo: Phosphoryl donor specificity of EhPanK
- Assay type: biochemical
- appliedConditions: donor 100 μM, 0.2 mM pantothenate, 10 mM MgCl2, 37 °C, pH 6; relative to ATP; ND = not detected
Reported Relative activity (phosphoryl donor) values for the following molecules.
Please reply with the bare figure in % and do not write the unit itself.

Reference set, count: 3
Cc1cn([C@H]2C[C@H](O)[C@@H](COP(=O)(O)OP(=O)(O)OP(=O)(O)O)O2)c(=O)[nH]c1=O: 5.4
Nc1nc2c(ncn2[C@@H]2O[C@H](COP(=O)(O)OP(=O)(O)OP(=O)(O)O)[C@@H](O)[C@H]2O)c(=O)[nH]1: 78.8
O=c1ccn([C@@H]2O[C@H](COP(=O)(O)OP(=O)(O)OP(=O)(O)O)[C@@H](O)[C@H]2O)c(=O)[nH]1: 16.6

Lookup: Kindly state the measured Relative activity (phosphoryl donor) obtained for Nc1ncnc2c1ncn2[C@H]1C[C@H](O)[C@@H](COP(=O)(O)OP(=O)(O)OP(=O)(O)O)O1 with E. histolytica pantothenate kinase (Entamoeba histolytica).
Found: 19.3
